- TARGET UNDER TEST: skeletal myofibrils (myosin ATPase)
- ASSAY NOTES: Skeletal Myofibril ATPase Assay
- Type: biochemical
- STATED CONDITIONS: Table 4C
Measured IC50, listed per entry for reference.
PROPERTY LABEL: IC50

* O=C(Cn1nc(-c2ccccc2)ccc1=O)Nc1ccc2[nH]ccc2c1 [IIIc-49] | < 10 µM
* COc1ccc(-c2ccc(=O)n(CC(=O)NCCC(C)C)n2)cc1 [IIIb-48] | > 100 µM
* O=C(Cn1nc(-c2ccccc2)ccc1=O)NCc1ccccc1Cl [IIIc-47] | 10 to 100 µM
* COc1ccc(-c2ccc(=O)n(CC(=O)NC(C)C)n2)c(F)c1 [IIIb-19] | 10 to 100 µM
* O=C(Cn1nc(-c2ccc3c(c2)OCCO3)ccc1=O)Nc1ccccc1F [IIIb-6] | < 10 µM
* O=C(Cn1nc(-c2ccc(Cl)cc2)ccc1=O)Nc1ccccc1F [IIIc-27] | 10 to 100 µM
* COc1ccc(-c2ccc(=O)n(CC(=O)NCCC(C)C)n2)c(F)c1 [IIIb-57] | > 100 µM
* COc1ccc(-c2ccc(=O)n(CC(=O)NCc3cc(F)ccc3Cl)n2)cc1 [IIIa-7] | < 10 µM
* CC(C)CNC(=O)Cn1nc(-c2ccc(Cl)cc2)ccc1=O [IIIc-35] | 10 to 100 µM
* CC(C)OCCCNC(=O)Cn1nc(-c2ccc(Cl)cc2)ccc1=O [IIIc-33] | 10 to 100 µM

---

- TARGET UNDER TEST: skeletal myofibrils (myosin ATPase)
- ASSAY NOTES: Skeletal Myofibril ATPase Assay
- Type: biochemical
- STATED CONDITIONS: Table 4C
PROPERTY LABEL: IC50

* COc1ccc(-c2ccc(=O)n(CC(=O)NCc3cnoc3)n2)cc1 [IIIa-31] | > 100 µM
* COc1ccc(-c2ccc(=O)n(CC(=O)NCc3cnn(C)c3)n2)cc1 [IIIa-32] | > 100 µM
* COc1ccc(-c2ccc(=O)n(CC(=O)NC(C)c3ccccc3Cl)n2)cc1 (stereo not shown) [IIIa-25] | 10 to 100 µM
* O=C(Cn1nc(-c2ccccc2)ccc1=O)Nc1cccc2[nH]ccc12 [IIIc-50] | 10 to 100 µM
* COc1ccc(-c2ccc(=O)n(CC(=O)NCCC3=CCCCC3)n2)c(F)c1 [IIIb-7] | < 10 µM
* COc1ccc(-c2ccc(=O)n(CC(=O)NCc3ccccn3)n2)cc1 [IIIa-30] | > 100 µM
* COc1ccc(-c2ccc(=O)n(CC(=O)Nc3cc(Cl)ccc3Cl)n2)c(F)c1 [IIIb-13] | < 10 µM

---

- TARGET UNDER TEST: skeletal myofibrils (myosin ATPase)
- ASSAY NOTES: Skeletal Myofibril ATPase Assay
- Assay type: biochemical
- STATED CONDITIONS: Table 4C
- Experimental: Example 12. Skeletal Myofibril ATPase Assay Overview: Myosin ATPase activity is assessed by using a coupled reaction system, in which ADP generated by the myosin ATPase function is coupled to the disappearance of NADH through the pyruvate kinase/lactate dehydrogenase (PK-LDH) system. […] The rate of the reaction is monitored through the time-dependent disappearance of NADH using absorbance at 340 nm. […]
PROPERTY LABEL: IC50

* COc1ccc(-c2ccc(=O)n(CC(=O)Nc3cccc(C)n3)n2)cc1 | > 100 µM
* COc1ccc(-c2ccc(=O)n(CC(=O)NC3CCCCC3)n2)cc1 | > 100 µM
* O=C(Cn1nc(-c2ccc(Cl)cc2)ccc1=O)Nc1ccccc1Cl | < 10 µM
* O=C(Cn1nc(-c2ccccc2)ccc1=O)Nc1ccccc1Cl | 10 to 100 µM
* COc1ccc(-c2ccc(=O)n(CC(=O)NCc3ccco3)n2)cc1 [IIIb-53] | > 100 µM
* COc1ccc(-c2ccc(=O)n(CC(=O)NCc3ccccc3Cl)n2)cc1OC | > 100 µM
* CC(CCNC(=O)Cn1nc(-c2ccccc2)ccc1=O)c1ccccc1 (stereo not drawn) | 10 to 100 µM
* CC[C@H](C)NC(=O)Cn1nc(-c2ccc(Cl)cc2)ccc1=O | 10 to 100 µM
* COc1ccc(-c2ccc(=O)n(CC(=O)Nc3cc(Cl)ccc3Cl)n2)cc1 | < 10 µM

---

- TARGET UNDER TEST: skeletal myofibrils (myosin ATPase)
- ASSAY NOTES: Skeletal Myofibril ATPase Assay
- Format: biochemical
- STATED CONDITIONS: Table 4C
PROPERTY LABEL: IC50

* COc1ccc(-c2ccc(=O)n(CC(=O)NCc3ccc(F)cc3)n2)cc1 | > 100 µM
* COc1ccc(-c2ccc(=O)n(CC(=O)NC[C@@H]3CC4C=CC3C4)n2)cc1 (some centres unmarked) | > 100 µM
* COc1ccc(-c2ccc(=O)n(CC(=O)NC3CCCCC3)n2)c(F)c1 | > 100 µM
* COc1ccc(-c2ccc(=O)n(CC(=O)NCc3ccon3)n2)cc1 | 10 to 100 µM
* COc1ccc(-c2ccc(=O)n(CC(=O)NC(C)CCc3ccccc3)n2)cc1 (centres unmarked) | 10 to 100 µM
* COc1ccc(-c2ccc(=O)n(CC(=O)Nc3ncccc3C)n2)cc1 | 10 to 100 µM
* COc1ccc(-c2ccc(=O)n(CC(=O)NCC3CCCCC3)n2)cc1 | < 10 µM
* COc1ccc(-c2ccc(=O)n(CC(=O)NCc3ccccc3Cl)n2)cc1F | 10 to 100 µM

---

- TARGET UNDER TEST: skeletal myofibrils (myosin ATPase)
- ASSAY NOTES: Skeletal Myofibril ATPase Assay
- Assay type: biochemical
- STATED CONDITIONS: Table 4A
PROPERTY LABEL: IC50

* O=C(Cn1nc(-c2ccc(OCC(F)(F)F)nc2)ccc1=O)NC1CCC1 | < 10 µM
* O=C(Cn1nc(-c2ccc(OC(F)F)nc2)ccc1=O)NC1CCC1 | < 10 µM
* O=C(Cn1nc(-c2ccc(NC34CC(C3)C4)nc2)ccc1=O)NC1CCC1 | < 10 µM
* CCNC(=O)Cn1nc(-c2cnc(Oc3ccc(Cl)cc3)nc2)ccc1=O | 10 to 100 µM
* CCNC(=O)Cn1nc(-c2ccc(N3CC4(C3)CS(=O)(=O)C4)nc2)ccc1=O | > 100 µM
* CCNC(=O)Cn1nc(-c2ccc(OCC3(C)COC3)nc2)ccc1=O | 10 to 100 µM
* CCNC(=O)Cn1nc(-c2ccc(Oc3ccc(F)cc3)nc2)ccc1=O | 10 to 100 µM

---

Measured IC50, listed per entry for reference.
- TARGET UNDER TEST: skeletal myofibrils (myosin ATPase)
- ASSAY NOTES: Skeletal Myofibril ATPase Assay
- Format: biochemical
- STATED CONDITIONS: Table 4C
PROPERTY LABEL: IC50

- COc1ccc(-c2ccc(=O)n(CC(=O)NC(C)(C)c3ccccc3)n2)cc1: < 10 µM
- COc1ccc(-c2ccc(=O)n(CC(=O)NCc3cc(Cl)ccc3Cl)n2)cc1: < 10 µM
- O=C(Cn1nc(-c2ccccc2)ccc1=O)Nc1ccc2c(c1)OCCO2: > 100 µM

---

Measured IC50, listed per entry for reference.
- TARGET UNDER TEST: skeletal myofibrils (myosin ATPase)
- ASSAY NOTES: Skeletal Myofibril ATPase Assay
- Assay type: biochemical
- STATED CONDITIONS: Table 4A
- Procedure: Example 12. Skeletal Myofibril ATPase Assay Overview: Myosin ATPase activity is assessed by using a coupled reaction system, in which ADP generated by the myosin ATPase function is coupled to the disappearance of NADH through the pyruvate kinase/lactate dehydrogenase (PK-LDH) system. […] The rate of the reaction is monitored through the time-dependent disappearance of NADH using absorbance at 340 nm. […]
PROPERTY LABEL: IC50

* CCNC(=O)Cn1nc(-c2ccc(N3CCCC3C(F)(F)F)nc2)ccc1=O (stereo not shown) [Compound I-48] | < 10 µM
* CCNC(=O)Cn1nc(-c2ccc(N3CCC34COC4)nc2)ccc1=O [Compound I-19] | 10 to 100 µM
* O=C(Cn1nc(-c2ccc(OC(F)F)nc2)ccc1=O)NCc1ccc(Cl)cc1 [Compound I-70] | < 10 µM
* CCNC(=O)Cn1nc(-c2ccc(NC)nc2)ccc1=O [Compound I-47] | < 10 µM
* CCNC(=O)Cn1nc(-c2ccc(N3CC(F)(F)C3)nc2)ccc1=O [Compound I-6] | 10 to 100 µM
* CCNC(=O)Cn1nc(-c2cnc(NC34CC(O)(C3)C4)nc2)ccc1=O [Compound I-42] | 10 to 100 µM
* CCNC(=O)Cn1nc(-c2ccc(OC(F)(F)F)nc2)ccc1=O [Compound I-14] | 10 to 100 µM

---

- TARGET UNDER TEST: skeletal myofibrils (myosin ATPase)
- ASSAY NOTES: Skeletal Myofibril ATPase Assay
- Assay type: biochemical
- STATED CONDITIONS: Table 4B
pIC50: −log10 of the molar value.
PROPERTY LABEL: pIC50

- O=C(Cn1nc(-c2ccc(OCC(F)(F)F)cc2)ccc1=O)NCc1ccc[nH]c1=O: 4.00 to 5.00
- CCNC(=O)Cn1nc(-c2ccc(NC(C)=O)cc2)ccc1=O: > 5.00
- CCCNC(=O)Cn1nc(-c2ccc(OC(F)F)cc2)ccc1=O: 4.00 to 5.00
- O=C(Cn1nc(-c2ccc(OCC(F)(F)F)cc2)ccc1=O)N1CC(c2ccccc2)C1: > 5.00
- CC(C)NC(=O)Cn1nc(-c2ccc(OC(F)(F)F)cc2)ccc1=O: > 5.00
- O=C(Cn1nc(-c2ccc(OC(F)F)cc2)ccc1=O)NC1CCC1: > 5.00
- CC(=O)Nc1ccc(-c2ccc(=O)n(CC(=O)NC(C)C)n2)cc1: 4.00 to 5.00
- CCNC(=O)Cn1nc(-c2ccc(OC(F)F)cc2)ccc1=O: > 5.00
- O=C(Cn1nc(-c2ccc(OC(F)F)cc2)ccc1=O)NCC1CCC1: 4.00 to 5.00
- O=C(Cn1nc(-c2ccc(OC(F)F)cc2)ccc1=O)NCC(F)F: 4.00 to 5.00
